// reported IC50 per item
measurement_target: MMP-1 (Homo sapiens)
Sequence (P03956 100-469): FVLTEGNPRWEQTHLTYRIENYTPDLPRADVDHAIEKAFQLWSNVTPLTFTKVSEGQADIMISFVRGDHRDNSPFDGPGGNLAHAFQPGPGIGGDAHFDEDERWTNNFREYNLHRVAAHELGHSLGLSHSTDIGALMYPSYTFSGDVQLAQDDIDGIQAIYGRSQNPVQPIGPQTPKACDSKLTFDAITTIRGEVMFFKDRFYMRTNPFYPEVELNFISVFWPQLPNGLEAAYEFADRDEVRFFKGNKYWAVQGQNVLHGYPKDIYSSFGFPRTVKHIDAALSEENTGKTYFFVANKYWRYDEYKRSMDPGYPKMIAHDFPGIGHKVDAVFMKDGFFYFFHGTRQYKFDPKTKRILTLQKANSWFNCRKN
method_notes: MMP-1 inhibitory action (Type I collagen Activity Measurement kit, FITC-labeled collagen type I)
Assay type: biochemical
experimental_context: Experimental Example 2; read-out: IC50 MMP1

// known answers, use as guide
>>> value_observed("CNC(=O)[C@]1(NS(=O)(=O)c2ccc(-c3cc(C(F)(F)F)on3)s2)C(C)[C@@H]1c1ccccc1 (stereo partly shown) [Example 2-297]")
"≥ 10000 nM"
>>> value_observed("O=C(O)C1(NS(=O)(=O)c2ccc(-c3cc(C(F)(F)F)on3)s2)C2Cc3ccccc3C21 (stereo not shown) [Example 2-277]")
"≥ 1000 nM"
>>> value_observed("CC1(C)C(c2ccccc2)C1(NS(=O)(=O)c1ccc(-c2cc(C(F)(F)F)on2)s1)C(=O)O (stereo not shown) [Example 2-275]")
"≥ 1000 nM"

For the next question, use this molecule.
Query: Indicate its recorded IC50; the molecule in question is CC(=O)N1CCC2C(c3ccccc31)C2(NS(=O)(=O)c1ccc(-c2ccc(Cl)cc2)s1)C(=O)O (stereo not shown) [Example 2-439]
Result: ≥ 1000 nM

====

measurement_target: aggrecanase-1 (Homo sapiens)
Sequence (O75173 213-837, species assumed): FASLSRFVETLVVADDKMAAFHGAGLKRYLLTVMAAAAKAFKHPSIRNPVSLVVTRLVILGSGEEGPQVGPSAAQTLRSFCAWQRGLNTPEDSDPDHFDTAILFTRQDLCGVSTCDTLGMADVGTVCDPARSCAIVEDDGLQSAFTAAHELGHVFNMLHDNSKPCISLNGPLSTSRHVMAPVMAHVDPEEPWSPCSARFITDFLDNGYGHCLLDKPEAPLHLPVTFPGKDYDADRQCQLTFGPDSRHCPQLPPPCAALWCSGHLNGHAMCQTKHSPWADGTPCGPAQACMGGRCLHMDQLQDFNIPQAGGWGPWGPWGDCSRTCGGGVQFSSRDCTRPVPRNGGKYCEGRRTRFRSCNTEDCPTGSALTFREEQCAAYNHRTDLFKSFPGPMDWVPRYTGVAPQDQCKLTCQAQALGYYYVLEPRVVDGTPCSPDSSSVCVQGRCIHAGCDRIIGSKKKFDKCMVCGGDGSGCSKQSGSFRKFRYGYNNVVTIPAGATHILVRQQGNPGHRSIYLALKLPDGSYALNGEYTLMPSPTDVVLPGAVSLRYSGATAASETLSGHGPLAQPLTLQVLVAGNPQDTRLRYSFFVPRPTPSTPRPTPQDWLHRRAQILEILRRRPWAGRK
method_notes: Aggrecanase-1 inhibitory action (Particle Assay, GAG release from aggrecan-containing polyacrylamide particles)
Assay type: biochemical
experimental_context: aggrecanase-1 inhibitory action; read-out: IC50 AG1 (Experimental Example 1)
pIC50: −log10 of the molar value.
measurement_name: pIC50

>>> value_observed("CCCC(=O)c1ccc(S(=O)(=O)NC2(C(=O)O)CC2c2ccccc2)s1 (stereo not shown)")
"≤ 5.00"
>>> value_observed("O=C(O)[C@]1(NS(=O)(=O)c2ccc(-c3cc(C(F)(F)F)on3)s2)C[C@@H]1c1ccccc1")
"> 7.00"
>>> value_observed("O=C(O)C1(NS(=O)(=O)c2ccc(-c3ccc(Cl)cc3)s2)CC1c1ccccc1OCc1ccccc1 (stereo not shown)")
"> 6.00"
>>> value_observed("O=C(Nc1cccc(C2CC2(NS(=O)(=O)c2ccc(-c3ccc(Cl)cc3)cc2)C(=O)O)c1)c1ccncc1 (stereo not shown)")
"> 6.00"
>>> value_observed("O=C(O)C1(NS(=O)(=O)c2ccc(-c3ccc(Cl)cc3)s2)CC1c1cccc(O)c1 (stereo not shown)")
"> 6.00"
>>> value_observed("O=C(O)[C@]1(NS(=O)(=O)/C=C/c2cccc(C(F)(F)F)c2)C[C@@H]1c1ccccc1")
"≤ 5.00"

Okay, now this molecule:
Query: Supply recorded pIC50 for CN(C)CCC(=O)Nc1cccc(C2CC2(NS(=O)(=O)c2ccc(-c3ccc(Cl)cc3)s2)C(=O)O)c1 (stereo not shown) here.
Result: > 6.00
